PROTOCOL DETAILS: protein stability index of a GFP-peptide fusion (GPS, HEK-293T) (PSI 1-6); higher = more stable;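 further: 24-mer peptide tiles fused after GFP, lentivirally expressed, FACS-sorted into six equal bins by GFP/DsRed ratio, decoded by Illumina sequencing, PSI is the read-weighted mean bin number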
EXPERIMENTAL SETUP: treatment: DMSO; c terminus: native
# label = Met if protein stability index >= 3 else Not met

Take a look at these entries with their results.
> print(dat)
                     chain.sequence    group
1    LTEAEGWHFFCFQGEATRKLAGK [SAT2]  Not met
2  PEPPPVSFQPYHPLHFRGSNGMS [TENT5D]      Met
3    SSEEGWRLFKIDKEYLLKMATEE [SAT1]  Not met

In: Decide: protein stability index of RDRVGHKSIPMRNLRARPAKCLS [SERPINB5] >= 3?
Out: Not met

In: Decide: protein stability index of SSPGNNNGTSIEDGQIPEIIFYT [BTBD1] >= 3?
Out: Met

In: Decide: protein stability index of PYDLHLRSQSLTMQDELNAVFHN [NEUROD6] >= 3?
Out: Met

In: Decide: protein stability index of SLIEDSQALHKRPKLDSEYYCFG [LURAP1L] >= 3?
Out: Not met

In: Decide: protein stability index of AIFIMSLNKRHSSGDGNSKLKSE [MFSD9] >= 3?
Out: Not met

In: Decide: protein stability index of DGDKNNDGRIDFDEFLKMMEGVQ [TNNC2] >= 3?
Out: Met

In: Decide: protein stability index of IANCKLFRLQLQQGLFRIRVHSP [GAN] >= 3?
Out: Met

====

The following sequences are listed with their measured protein stability index values.
PROTOCOL DETAILS: protein stability index of a GFP-peptide fusion (GPS, HEK-293T) (PSI 1-6); higher = more stable
EXPERIMENTAL SETUP: treatment: MLN4924 1 uM, 8 h; c terminus: a fixed tail appended
Respond with the number and no other words.

In the examples that follow, each entry is paired with its recorded protein stability index.
> print(dat)
                      chain.sequence        measured.endpoint  result.number
1    ALREVYAHAVLGQHSHVVRYFSAW [WEE1]  protein stability index           2.03
2  SIQKLSNESRYMIYEFWENSSVWN [NECAB1]  protein stability index           2.01
3   LIPVPMATQIQQLLQDKQFELALQ [VPS39]  protein stability index           2.69
4   LKEGVRLDRVRGGRQKYKRRPEVD [ESRRA]  protein stability index           4.43
5   CFLLTAMAYDQFLAICRPLTYSTR [OR3A1]  protein stability index           2.89
6    SLASQVHAAAVNGDKGALQRLIVG [INVS]  protein stability index           3.19
7   QCLDKTNESALVKEKELSIELANI [MTUS2]  protein stability index           4.77
8   ASWMYQLQHGDQLSICFTCFKAAF [TEX19]  protein stability index           2.51

Consider the record given below.
In: Hello, please tell me recorded protein stability index for this one: EERLKLSPSPSSRVTVSRASSSRS [LMNB1]
Out: 5.03

====

PROTOCOL DETAILS: protein stability index of a GFP-peptide fusion (GPS, HEK-293T) (PSI 1-6); higher = more stable
EXPERIMENTAL SETUP: treatment: MLN4924 1 uM, 8 h; c terminus: a fixed tail appended
# label = 1 if protein stability index >= 3 else -1

In: Decide: protein stability index of RSMVFKDVLLLGNDYIVPRHCPEL [HNF4A] >= 3?
Out: -1

In: Decide: protein stability index of ITDNFCYFRHADPTWQNSIRHNLS [FOXJ1] >= 3?
Out: -1

In: Decide: protein stability index of THNIAHGSLGFEPVYVSCIAQDTC [SPAG8] >= 3?
Out: -1

In: Decide: protein stability index of RLVGKTPIETLIRDMLLSGSSFNW [NR2F2] >= 3?
Out: -1

In: Decide: protein stability index of SPRLTFQCLEDLVNHYSEVADGLC [SLA] >= 3?
Out: 1
